The following sequences are listed with their measured switch fluorescence ratio values.
- System: ATP;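 note: ATP exposure 15 min at 22 °C before imaging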
- experiment-notes: switch fluorescence ratio, 500 uM ATP over buffer (Cy3 cluster intensity, sum of 5 cycles each) (fold (ratio)); higher = stronger signal-on switching upon ATP binding; sequences stand for … in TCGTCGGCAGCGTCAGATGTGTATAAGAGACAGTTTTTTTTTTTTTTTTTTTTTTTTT…TC
- condition-summary: aptamer strand: ATP DNA aptamer (quencher-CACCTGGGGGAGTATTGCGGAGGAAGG + anchor), 100 nM annealed; ATP concentration: 500 uM

Please review the following examples before continuing.
{"sequence-text": "ATTATGGTGG", "switch fluorescence ratio": 1.16}
{"sequence-text": "ACATATGGGC", "switch fluorescence ratio": 0.974}
{"sequence-text": "AAGGGATATG", "switch fluorescence ratio": 1}

Data request: Please report switch fluorescence ratio for the following sequence: TTTTTATATA
Data returned: 0.997

Data request: Give the reported value of switch fluorescence ratio for this record: TTTTTGAAT
Data returned: 1.01

Data request: Provide switch fluorescence ratio value for the following sequence: CAGGGACGGA
Data returned: 1.02

Data request: For TTTTGGCTTT , write its switch fluorescence ratio.
Data returned: 1

Data request: Answer with the recorded switch fluorescence ratio of AATGGGGACG only.
Data returned: 0.985

Data request: Using the record for GTTCTCCTT , state its measured switch fluorescence ratio.
Data returned: 1.07

Data request: Please report switch fluorescence ratio for the following sequence: GGTTAGATAG
Data returned: 1.01

Data request: Supply recorded switch fluorescence ratio for AAAAGAGTGT here.
Data returned: 1.01

Data request: In one line, give reported switch fluorescence ratio of the entry GGCGTGCGTA .
Data returned: 1.01

Data request: Identify the reported switch fluorescence ratio for the following entry. TACCTAGTGC
Data returned: 1.04

Data request: Please give measured switch fluorescence ratio of the following entry: CGTAGTTTGT
Data returned: 1.03

Data request: Return value of switch fluorescence ratio for input AATAACTCCG , no commentary.
Data returned: 1.22

Data request: Output measured switch fluorescence ratio for this item: GGGGCGGTCT
Data returned: 0.967

Data request: Identify measured switch fluorescence ratio associated with TATACGCGCC
Data returned: 1.12

Data request: Return reported switch fluorescence ratio. Input sequence: TGGGGGTTGC
Data returned: 0.982

Data request: Please report switch fluorescence ratio for the following sequence: TGTTGTTGAT
Data returned: 0.985

Data request: Tell me measured switch fluorescence ratio for GGCCATCTGG please.
Data returned: 1.04

Data request: Report measured switch fluorescence ratio; entry is GCGAATTGGA
Data returned: 1.03

Sourced from the supplement of paper PMC10126150
